Recorded IC50 for the following compounds
molecular target: Lp-PLA2 from plasma (Homo sapiens, UniProt Q13093); construct: from tissue; host or cells: pooled human plasma; test: Lp-PLA2 human plasma assay (Thio-PAF assay); type: biochemical; conditions: pooled human plasma; read-out: pIC50 values in the thio-PAF assay (converted)
Sequence (Q13093 22-441): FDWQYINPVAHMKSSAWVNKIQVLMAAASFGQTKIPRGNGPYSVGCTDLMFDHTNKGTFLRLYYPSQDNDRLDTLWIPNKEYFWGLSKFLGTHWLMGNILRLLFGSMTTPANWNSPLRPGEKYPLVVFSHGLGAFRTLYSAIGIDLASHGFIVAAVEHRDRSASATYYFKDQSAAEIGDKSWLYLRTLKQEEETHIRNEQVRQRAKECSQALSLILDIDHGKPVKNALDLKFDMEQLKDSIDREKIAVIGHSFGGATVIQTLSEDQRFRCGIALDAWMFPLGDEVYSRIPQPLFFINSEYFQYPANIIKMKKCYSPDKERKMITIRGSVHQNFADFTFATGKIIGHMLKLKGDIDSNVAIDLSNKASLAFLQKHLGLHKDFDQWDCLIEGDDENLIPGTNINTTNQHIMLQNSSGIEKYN
Where a name gives a salt, the structure may show the parent alone.

Compound | IC50
Cc1cn(Cc2cnn(C)c2)c(=O)nc1OCc1ccc(Oc2ccc(F)c(F)c2)c(F)c1 | ≤ 100 nM
Cn1cc(Cn2cc(F)c(OCCc3cnc(Oc4ccc(F)c(C(F)(F)F)c4)c(F)c3)nc2=O)cn1 | ≤ 100 nM
COc1ncc(Cn2cc(F)c(OCCc3ccc(Oc4cccc(C(F)(F)F)n4)cc3)nc2=O)cn1 | ≤ 1000 nM
O=c1nc(OCCc2ccc(Oc3ccc(Cl)c(C(F)(F)F)c3)cc2)ccn1CCc1cccnc1 [Example 13, trifluoroacetate] | ≤ 1000 nM
Cn1cc(Cn2cc(Cl)c(OCc3ccc(Oc4ccc(F)c(F)c4)c(F)c3)nc2=O)cn1 | ≤ 100 nM

# query: IC50 | item N#Cc1cc(COc2ccn(Cc3ccncc3)c(=O)n2)ccc1Oc1ccc(Cl)c(C(F)(F)F)c1 [Example 2, trifluoroacetate] | system: Lp-PLA2 from plasma (Homo sapiens, UniProt Q13093)
≤ 100 nM

What would you report for `O=c1nc(OCCc2ccc(Oc3ccc(Cl)c(C(F)(F)F)c3)cc2)ccn1Cc1ccncc1` ?
≤ 100 nM

What would you report for `COc1ncc(Cn2cc(Cl)c(OCCc3cnc(Oc4ccc(F)c(C(F)(F)F)c4)c(F)c3)nc2=O)cn1` ?
≤ 100 nM
